Each record here notes measured z-score.
test: compound effects on hepatocellular carcinoma cell viability – HepG2, calcein-AM fluorescence, 48 h, basal, profiling panel (AID 1164); conditions: higher = more signal; also: test concentration not given here
Answer with a number only.

chem-smiles: O=C1O[C@H](c2ccccc2)[C@H](c2ccccc2)N2[C@H]1[C@@H](C(=O)N1CCCCCCC1)[C@]1(C(=O)Nc3ccccc31)[C@H]2c1ccc(O)cc1
obs-value: 0.757
//
chem-smiles: CC(C)NC(=O)[C@@]1(Cc2ccccc2I)c2ccccc2C(=O)N(Cc2ccccc2C(F)(F)F)[C@H]1c1ccc(CO)cc1
obs-value: 0.289
//
chem-smiles: COc1ccc([Si](C)(C)[C@H]2[C@H](CCO)O[C@@]3(C(=O)N(Cc4cccc(N5CCOC5=O)c4)c4ccccc43)[C@@H]2C)cc1
obs-value: -0.925
//
chem-smiles: COCCCNC(=O)[C@@]1(C)c2ccccc2C(=O)N(c2ccc(C)cn2)[C@H]1c1ccc(CO)cc1
obs-value: -0.956
//
chem-smiles: COc1cccc(C)c1NC(=O)O[C@H]1[C@H](OC(=O)Nc2ccccc2)[C@H](OC(=O)Nc2ccccc2)[C@@H](OC)O[C@@H]1CO
obs-value: -1.1

Task: Please report z-score for the following compound: COC(=O)C(CC#Cc1ccc2c(c1)[C@]1(C(=O)N2)[C@H](C(=O)N2CCc3cc(OC)c(OC)cc3C2)[C@H]2C(=O)O[C@H](c3ccccc3)[C@H](c3ccccc3)N2[C@@H]1c1ccc(O)cc1)C(=O)OC
Output: 0.613

====

Reported z-score is given for each of the following compounds.
test: growth modulation of vineyard yeast isolate – strain RM11-1a, OD600, basal, 24 h, primary screen (AID 1177);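 also: cultures grown under basal conditions with no added stressor; test concentration not given here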; conditions: S. cerevisiae RM11-1a growth, OD600, 24 h; higher = more signal, called active from +8 up or from −8 down
API doc: respond with a numeric literal and nothing else, no unit.

Answered cases to consult:
compound: COCCCNC(=O)[C@@]1(Cc2ccccc2CN=[N+]=[N-])N=C(c2ccc(OCCCO)cc2)O[C@H]1c1ccccc1N=[N+]=[N-]
assay-metric: z-score
obs-value: 0.587
//
compound: COC(=O)[C@]1(Cc2ccccc2N=[N+]=[N-])N=C(c2ccc(OCCCO)cc2)O[C@@H]1c1ccccc1
assay-metric: z-score
obs-value: 1.53
//
compound: C[N+](C)(C)CCCCCCNC(=O)[C@@H]1C[C@@H]2C(=O)NCC(=O)N2[C@@H]1c1ccc(O)cc1
assay-metric: z-score
obs-value: 0.311
//
compound: COc1ccc(C(=O)Nc2ccc(CN3C(=O)[C@]4(O[C@H](CCn5cc([C@H](O)c6ccccc6)nn5)[C@@H]([Si](C)(C)c5ccc(OC)cc5)[C@@H]4C)c4ccccc43)cc2)cc1
assay-metric: z-score
obs-value: 1.63

Task: Consider the compound O=C1O[C@H](c2ccccc2)[C@H](c2ccccc2)N2[C@H]1[C@@H](C(=O)N1CCCCCCC1)[C@]1(C(=O)Nc3ccccc31)[C@H]2c1ccc(O)cc1 and give its recorded z-score.
Output: 0.767

Task: Retrieve z-score measured for C=CCOC(=O)[C@@H]1[C@H]2C(=O)O[C@H](c3ccccc3)[C@H](c3ccccc3)N2[C@H](c2ccc(OCCOC(=O)[C@H]3C[C@H]4C(=O)N[C@@H](Cc5ccccc5)C(=O)N4[C@H]3c3cccc(OCCO)c3)cc2)[C@@]12C(=O)Nc1ccc(I)cc12 and print it.
Output: 2.13

Task: Answer with the recorded z-score of CO[C@H]1O[C@H](CO)[C@@H](OC(=O)Nc2ccc(C(F)(F)F)cc2)[C@H](OC(=O)Nc2ccccc2)[C@H]1OC(=O)Nc1ccccc1 only.
Output: 2.72

Task: Please give the documented z-score of COC(=O)[C@@]1(Cc2ccc(OC)cc2)[C@H]2c3cc(C(=O)N(C)C)n(CCF)c3C[C@H]2CN1C(=O)c1ccccc1
Output: 0.177
